These entries and their values trace back to BindingDB's records for doi:10.1016/j.bmc.2010.02.001.

- system: LL-diaminopimelate aminotransferase, chloroplastic (Arabidopsis thaliana)
- Sequence (Q93ZN9 whole entry): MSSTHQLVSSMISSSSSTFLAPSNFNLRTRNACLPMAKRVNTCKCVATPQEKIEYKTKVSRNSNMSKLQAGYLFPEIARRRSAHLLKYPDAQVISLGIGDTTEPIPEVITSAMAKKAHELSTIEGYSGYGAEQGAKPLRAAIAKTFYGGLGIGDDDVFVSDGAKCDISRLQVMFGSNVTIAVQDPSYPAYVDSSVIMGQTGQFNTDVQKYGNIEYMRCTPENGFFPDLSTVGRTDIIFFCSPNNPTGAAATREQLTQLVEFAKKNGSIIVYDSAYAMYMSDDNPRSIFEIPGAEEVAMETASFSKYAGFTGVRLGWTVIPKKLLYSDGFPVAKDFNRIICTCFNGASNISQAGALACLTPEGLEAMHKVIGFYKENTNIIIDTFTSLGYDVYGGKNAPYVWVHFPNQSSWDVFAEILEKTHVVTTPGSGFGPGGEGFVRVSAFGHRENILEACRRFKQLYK
measurement-label: IC50

I have this compound here, "NC(N=NCc1ccc(-c2cccc([N+](=O)[O-])c2)o1)=N[N+](=O)[O-]" , and I need its recorded IC50. > 200 µM
